# experiment: Tissue distribution of radioactivity after IV administration in rats bearing Walker 256 sarcoma (Tables 1-4)
# Format: in vivo, female Sprague Dawley rats
# test_settings: rat, kidney; tumor-bearing rats, 24 hours after IV, 125I-labelled, N = 3, mean ± standard error (Table 4); read-out: Radioactivity in kidney

compound: C[N+](C)(C)CCOP(=O)([O-])OCCCOCCCCCCCCCCCCc1cccc([125I])c1 [ET-12IP-H]
tissue uptake at 24 h, %ID/g: 0.235

* * *

# experiment: Tissue distribution of radioactivity after IV administration in rats bearing Walker 256 sarcoma (Tables 1-4)
# Assay type: in vivo, female Sprague Dawley rats
# test_settings: rat, muscle; tumor-bearing rats, 24 hours after IV, 125I-labelled, N = 3, mean ± standard error (Table 4); read-out: Radioactivity in muscle
observation_type: tissue uptake at 24 h (%ID/g)

molecule: C[N+](C)(C)CCOP(=O)([O-])OCCCOCCCCCCCCCCCCc1cccc([125I])c1 [ET-12IP-H]
unit_abbrev: %ID/g
test_result: 0.014

* * *

# experiment: Tissue distribution of radioactivity after IV administration in normal (control) rats (Tables 1-4)
# Format: in vivo, female Sprague Dawley rats
# test_settings: rat, lung, 24 hours after IV, 125I-labelled, N = 3, mean ± standard error (Table 4), read-out: Radioactivity in lung

compound: C[N+](C)(C)CCOP(=O)([O-])OCCCOCCCCCCCCCCCCc1cccc([125I])c1 [ET-12IP-H]
tissue uptake at 24 h, %ID/g: 0.129
